Tested on: DG-75 Burkitt’s lymphoma cell line
Experimental protocol: alamarBlue cell viability assay
Condition set: Homo sapiens, DG-75, 48 h, read-out: % Viable Cells Remaining DG-75, 10 µM, 48 h
Quantity name: viability at 10 µM (%)
The figure you give is taken to be in %; do not add the unit.

Some compounds with recorded viability at 10 µM:
[[record]]
compound = "O=[N+]([O-])/C=C/c1c2ccccc2c(Br)c2ccccc12 [Compound 19h, (E)-9-Bromo-10-(2-Nitrovinyl)Anthracene]"
unit_label = "%"
numeric_readout = 70

[[record]]
compound = "O=C(c1c2ccccc2cc2ccccc12)N1CCCCCC1 [Compound 33c, Anthracen-9-yl(Azepan-1-yl)Methanone]"
unit_label = "%"
numeric_readout = 71.6

[[record]]
compound = "O=[N+]([O-])/C=C/c1c2ccccc2c(Cl)c2ccccc12 [Compound 19d]"
unit_label = "%"
numeric_readout = 57.1

[[record]]
compound = "O/N=C/Cc1c2ccccc2cc2ccccc12 [Compound 32e]"
unit_label = "%"
numeric_readout = 93

[[record]]
compound = "CCN(CC)C(=O)c1c2ccccc2cc2ccccc12 [Compound 33a]"
unit_label = "%"
numeric_readout = 90.5

[[record]]
compound = "COc1c2ccccc2c(/C=C/[N+](=O)[O-])c2ccccc12 [Compound 19g]"
unit_label = "%"
numeric_readout = 13.8


Below: the item to evaluate.
Entry O=[N+]([O-])/C=C/c1c2ccccc2cc2ccccc12 [Compound 19a, (E)-9-(2-nitrovinyl)anthracene] has what viability at 10 µM?
14
